Provenance of the data: patent US11066412B2

Parameter: IC50. Scope: all listed entries.
Test system: H146
Assay: in vitro cytotoxicity to SCLC cells
Format: cell-based, human
Conditions: Homo sapiens, NCI-H146; Table 3

{"columns": ["Molecule", "Measure unit", "IC50"],
 "data": [
  ["CCc1c2c(nc3ccc(OC(=O)N4CCC(N5CCCCC5)CC4)cc13)-c1cc3c(c(=O)n1C2)COC(=O)[C@]3(O)CC [Irinotecan, reference compound]", "µM", 11.5],
  ["COc1cc([C@@H]2c3cc4c(cc3[C@@H](O[C@@H]3O[C@@H]5CO[C@@H](C)O[C@H]5[C@H](O)[C@H]3O)[C@H]3COC(=O)[C@H]23)OCO4)cc(OC)c1O [Etoposide, reference compound]", "µM", 2.91]
]}

* * *

System: small cell lung cancer H526
Assay: in vitro cytotoxicity, PrestoBlue assay
Type: cell-based, human
Conditions: Table 3; read-out: IC50 H526
pIC50: −log10 of the molar value.
Given measured pIC50, output Y if it is greater than or equal to 7 and N if not.

{"columns": ["Compound", "Subject of test", "Class name"],
 "data": [
  ["Cc1c(CO)c(CO)c2c3cc4ccccc4cc3c(N3CCCC3)nn12 [BO-2762]", "small cell lung cancer H526", "Y"],
  ["CCNC(=O)OCc1c(COC(=O)NCC)c2c3cc4ccccc4cc3c(N(C)C)nn2c1C [BO-2772]", "small cell lung cancer H526", "N"],
  ["Cc1c(CO)c(CO)c2c3cc4ccccc4cc3c(N3CCC(N4CCCCC4)CC3)nn12 [BO-2792]", "small cell lung cancer H526", "Y"],
  ["N.N.[Cl][Pt][Cl] [Cisplatin, reference compound]", "small cell lung cancer H526", "N"],
  ["CCNC(=O)OCc1c(COC(=O)NCC)c2c3cc4ccccc4cc3c(N3CCC(N4CCCCC4)CC3)nn2c1C [BO-2793]", "small cell lung cancer H526", "Y"],
  ["N.N.O=C([O-])C1(C(=O)[O-])CCC1.[Pt+2] [Carboplatin, reference compound]", "small cell lung cancer H526", "N"],
  ["CCNC(=O)OCc1c(COC(=O)NCC)c2c3cc4ccccc4cc3c(N3CCCC3)nn2c1C [BO-2763]", "small cell lung cancer H526", "N"],
  ["Cc1c(CO)c(CO)c2c3cc4ccccc4cc3c(N3CCCCC3)nn12 [BO-2755]", "small cell lung cancer H526", "N"],
  ["Cc1c(CO)c(CO)c2c3cc4ccccc4cc3c(N(C)C)nn12 [BO-2768]", "small cell lung cancer H526", "Y"],
  ["CCNC(=O)OCc1c(COC(=O)NCC)c2c3cc4ccccc4cc3c(N3CCCCC3)nn2c1C [BO-2757]", "small cell lung cancer H526", "N"]
]}

* * *

Tested on: vinblastine-resistant sub-cell line (CCRF-CEM/VBL)
Test: in vitro cytotoxicity, PrestoBlue assay
Type: cell-based, human
Conditions: number in brackets
Label true (1) when resistance factor (IC50 CEM/VBL vs IC50 of the parent cell line) is strictly below 0.7 ×; at or above that, label false (0).

{"columns": ["Mol", "Subject of test", "Class name"],
 "data": [
  ["Cc1c(CO)c(CO)c2c3ccccc3c(N3CCOCC3)nn12", "vinblastine-resistant sub-cell line (CCRF-CEM/VBL)", "false (0)"],
  ["Cc1c(CO)c(CO)c2c3ccccc3c(N3CCCC3)nn12", "vinblastine-resistant sub-cell line (CCRF-CEM/VBL)", "true (1)"],
  ["CCc1c(COC(=O)NC(C)C)c(COC(=O)NC(C)C)c2c3ccccc3c(N3CCOCC3)nn12", "vinblastine-resistant sub-cell line (CCRF-CEM/VBL)", "true (1)"],
  ["COc1ccc(-c2c(COC(=O)NC(C)C)c(COC(=O)NC(C)C)c3c4ccccc4c(N4CCOCC4)nn23)cc1", "vinblastine-resistant sub-cell line (CCRF-CEM/VBL)", "false (0)"],
  ["CCNC(=O)OCc1c(COC(=O)NCC)c2c3ccccc3c(N3CCOCC3)nn2c1CC", "vinblastine-resistant sub-cell line (CCRF-CEM/VBL)", "false (0)"]
]}
